Hey, just so you know, these numbers are from PubChem BioAssay (NCI).

Assign TGI to each entry below.
Test system: 786-0 renal
Assay: NCI tumour cell line growth inhibition, 48 h

Exercise: For 786-0 renal, give the measured TGI of the entry CCN(CC)CCO/N=C1/C=C2CCC3C(CC[C@@]4(C)C3CC[C@]4(C)O)[C@@]2(C)CC1 (some centres not stated)
Key: 12.7 µM

Exercise: Specify TGI for Cc1nc2c(=O)n3c4c(cccc4c2o1)CCC3 , system 786-0 renal.
Key: > 100 µM

Exercise: Please report TGI with 786-0 renal for item Cc1cc(N(CCC#N)CCC#N)ccc1C=Nc1ccc(C(=O)NN2C(=O)/C(=C/c3ccc(N(CCC#N)CCC#N)cc3)N=C2c2cc([N+](=O)[O-])ccc2Cl)cc1 .
Key: > 100 µM

Exercise: Report TGI from 786-0 renal testing of O=C(Nc1ccn(CCI)c(=O)n1)c1ccccc1
Key: > 100 µM

Exercise: Look up 786-0 renal data: TGI of CC(C)C(NC(=O)C(Cc1ccccc1)NC(=O)[C@H]1CCC[C@H]1NC(=O)C(N)Cc1ccc(O)cc1)C(N)=O (some centres not stated) , then report it.
Key: > 100 µM

Exercise: Report measured TGI on 786-0 renal; entry: Cc1cc(OCc2nnc3n2N=C(c2ccc(Cl)cc2Cl)CS3)ccc1Cl
Key: > 100 µM

Exercise: Specify the recorded TGI for O=C(Nc1ccc(I)cc1F)c1cc(Cl)ccc1O , system: 786-0 renal.
Key: 7.18 µM

Exercise: Check 786-0 renal data and give TGI for CC(Br)C(=O)Nc1ccc(C(=O)O)c(O)c1 (configuration not stated) .
Key: > 100 µM

Exercise: Report TGI on 786-0 renal for this entry: CCOP(=O)(OCC)/C(C#N)=C/c1c[nH]c2ccccc12
Key: > 100 µM

Exercise: Print 786-0 renal TGI for O=C1NC2(CCN(CCCC3(c4ccc(F)cc4)OCCO3)CC2)Oc2ccccc21 .
Key: > 100 µM

Exercise: Retrieve TGI on 786-0 renal; query COc1ccc(NC2CC(C)N(C(=O)c3ccccc3)O2)cc1 (configuration not stated)
Key: > 10 µM

Exercise: Specify TGI for CC(C)CCN[C@@H]1CCc2cc(O)c(N3CC(=O)NS3(=O)=O)c(F)c2C1 , system 786-0 renal.
Key: > 100 µM

Exercise: Under 786-0 renal, report TGI for COc1cc(Cl)cc(-c2nn(-c3cccc(NC(=O)Nc4ccc(Cl)c(C(F)(F)F)c4)c3)cc2-c2ccncc2)c1
Key: 4.27 µM

Exercise: Recall the reported TGI of O=C1C=CC(O)C2C1CC13SSC4(CC5C(=O)C=CC(O)C5N4C1=O)C(=O)N23 (configuration not stated) when tested on 786-0 renal.
Key: 0.49 µM

Exercise: Give 786-0 renal TGI for the following compound: CCCCCC(O)C1C(=O)OC(C)C(O)/C=C/C=C/C=C/C=C/C=C(\C)C(O)C(O)C(O)CC(O)CC(O)CC(O)CC(O)CC1O (configuration not stated)
Key: > 100 µM

Exercise: State TGI (786-0 renal) of COCCOC(=O)C(C)=[N+]=[N-] .
Key: > 100 µM

Exercise: Report the value of TGI obtained on 786-0 renal for Cc1cccc2nc3cccc(C(=O)NCCN(C)C)c3nc12 .
Key: 14.6 µM

Exercise: Look up and report measured TGI (786-0 renal) for the following compound: N#Cc1c(N2CCOCC2)[nH]c(=O)c(C(c2c(Cl)cccc2Cl)c2c(O)c(C#N)c(N3CCOCC3)[nH]c2=O)c1O
Key: > 100 µM

Exercise: Provide TGI, system 786-0 renal, entry O=C1C2Nc3ccccc3SC2C(=O)N1c1ccccc1C(F)(F)F (configuration not stated)
Key: 68.5 µM

Exercise: State recorded TGI with 786-0 renal, entry COc1cc2c3c(n(CCCN=[N+]=[N-])c(=O)c2cc1OC)-c1ccc(N(C)C)cc1C3=O , no comment.
Key: > 100 µM

Exercise: State, for 786-0 renal, measured TGI of the compound listed here: Nc1n[nH]c(CCc2nc(N)n[nH]2)n1
Key: > 100 µM

Exercise: Please tell me the measured TGI for C/C=C/[C@H](O[Si](C)(C)C(C)(C)C)[C@@H](O)/C=C/C(=O)OCC ; system: 786-0 renal.
Key: 41.5 µM

Exercise: Provide measured TGI on 786-0 renal for O=[N+]([O-])c1cccc(C2=NOC3C4CCC(C4)C23)c1 (configuration not stated) please.
Key: > 100 µM

Exercise: Enter recorded TGI with 786-0 renal for c1ccc2cc3c(cc2c1)nc1ccccn13 here.
Key: > 100 µM

Exercise: Specify the recorded TGI for O=C1OC(c2ccccc2)=N/C1=C\c1cccc(F)c1 , system: 786-0 renal.
Key: > 100 µM

Exercise: Provide TGI, system 786-0 renal, entry Cc1cccc(C(C)(C)C)c1NC(=O)CC1Sc2ccccc2NC1=O (configuration not stated)
Key: > 100 µM

Exercise: Fill in: TGI on 786-0 renal, entry COc1ccc(Nc2c3ccccc3nc3[nH]c4ccccc4c23)cc1
Key: 49.2 µM
